System: Hep G2 cells
Test: In vitro expression: luciferase activity in Hep G2 cells transfected with RNA-LNPs
Format: cell-based
Details: 100 ng/mL RNA-LNPs, 72 hours post transfection, Formulation 001, RNA 331
measured.metric: In vitro Expression (Mean)

Req: Print Hep G2 cells In vitro Expression (Mean) for CCCCC/C=C\C/C=C\CCCCCCCC(=O)NC(COC(=O)NCCN1CCCCC1)C(=O)OCCCCCC(=O)OCC(CCCCCCCC)CCCCCCCCCC (stereo not drawn) .
Resp: 3.37E+05

Req: Print Hep G2 cells In vitro Expression (Mean) for CCCCC/C=C\C/C=C\CCCCCCCC(=O)NC(COC(=O)NCCN1CCCCC1)C(=O)OCCCCCCCC(=O)OC(CCCCCCCC)CCCCCCCC (stereo not drawn) .
Resp: 7.02E+05

Req: Print Hep G2 cells In vitro Expression (Mean) for CCCCC/C=C\C/C=C\CCCCCCCC(=O)NC(COC(=O)NCCN1CCCCCC1)C(=O)OCCCCCC(=O)OCC(CCCCCCCC)CCCCCCCCCC (stereo not drawn) .
Resp: 1.64E+05

Req: Print Hep G2 cells In vitro Expression (Mean) for CCCCC/C=C\C/C=C\CCCCCCCC(=O)N[C@@H](COC(=O)NCCN1CCCCC1)C(=O)OCCCCCCCC(=O)OC(CCCCCCCC)CCCCCCCC .
Resp: 9.94E+05

Req: Print Hep G2 cells In vitro Expression (Mean) for CCCCC/C=C\C/C=C\CCCCCCCC(=O)N[C@@H](COC(=O)NCCN1CCCCCC1)C(=O)OCCCCCCCC(=O)OC(CCCCCCCC)CCCCCCCC .
Resp: 5.82E+05

Req: Print Hep G2 cells In vitro Expression (Mean) for CCCCCCCC/C=C\CCCCCCCC(=O)NC(COC(=O)NCCN1CCCCCC1)C(=O)OCCCCCCCCOC(=O)C(CCCCCC)CCCCCCCC (stereo not drawn) .
Resp: 6.00E+05

====

Test: LNP size and polydispersity index (PDI) by dynamic light scattering (Zetasizer)
Type: physicochemical
Conditions: Formulation No. 001 (Ionizable lipid:DSPC:cholesterol:DMG-PEG2000 = 50:10:38.5:1.5, N/P 6), RNA No. 331
measured.metric: Size (nm)
Express it in nm; write the number only.

Req: Indicate the recorded Size (nm) value for this compound: CCCCCCCCC(CCCCCC)C(=O)OCCCCCCCCOC(=O)NC(COC(=O)NCCN1CCCCCC1)C(=O)OCCCCCCCCOC(=O)C(CCCCCC)CCCCCCCC (stereo not drawn)
Resp: 61.64

Req: Indicate the recorded Size (nm) value for this compound: CCCCC/C=C\CCOC(=O)CCCCCOC(=O)C(COC(=O)NCCN1CCCCC1)NC(=O)OCCCCCCCCOC(=O)C(CCCCCC)CCCCCCCC (stereo not drawn)
Resp: 83.18

Req: Indicate the recorded Size (nm) value for this compound: CCCCC/C=C\C/C=C\CCCCCCCCOC(=O)NC(COC(=O)NCCN1CCCC1)C(=O)OCCCCCC(=O)OCC(CCCCCCCC)CCCCCCCCCC (stereo not drawn)
Resp: 74.26

Req: Indicate the recorded Size (nm) value for this compound: CCCCCCCCC(CCCCCC)C(=O)OCCCCCCCCOC(=O)NC(COC(=O)NCCN(C)C)C(=O)OCCCCCCCCOC(=O)C(CCCCCC)CCCCCCCC (stereo not drawn)
Resp: 69.88

Req: Indicate the recorded Size (nm) value for this compound: CCCCCCCC/C=C\CCCCCCCC(=O)NC(COC(=O)NCCN1CCCCC1)C(=O)OCCCCCCCC(=O)OC(CCCCCCCC)CCCCCCCC (stereo not drawn)
Resp: 66.29

Req: Indicate the recorded Size (nm) value for this compound: CCCCCCCC/C=C\CCCCCCCC(=O)NC(COC(=O)NCCN1CCCCC1)C(=O)OCCCCCC(=O)OCC(CCCCCCCC)CCCCCCCCCC (stereo not drawn)
Resp: 64.18
